test system: Polygonum convolvulus (POLCO); assay: Post-emergence herbicidal action against POLCO; assay type: in vivo; conditions: dosage 320 g/ha
Quick reference: Post-emergence action against POLCO in % of the listed items.
Lab book: enter the figure in %, no units written.

Please review the entries below; each comes with its answer.
molecule | units label | Post-emergence action against POLCO in %
COCCOC(=O)COc1nn(-c2ncccc2F)c(-c2ccc(F)nc2)c1C1CC1 [Example I-314] | % | 90
O=C(O)COc1nn(-c2ncccc2F)c(-c2cncc(F)c2)c1C1CC1 [Example I-175] | % | 80
C[C@@H](Oc1nn(-c2ncccc2F)c(-c2ccc(F)nc2)c1F)C(=O)O [Example I-306] | % | 80

Query block: Return reported Post-emergence action against POLCO in %; argument: CCOC(=O)COc1nn(-c2ccncc2F)c(-c2ccc(F)nc2)c1Br [III-29]
Result block: 80
